Reference source: patent US20250163183A1

Measured Kd accompanies every entry in the list below.
test_system: T1, human activated protein C (APC) (human, UniProt P04070 43-461)
T1 construct: Bought (Haematologic Technologies; plasma-derived from Enzyme Research Laboratories); Two-chain disulfide-linked protease
T1 sequence (P04070 other isoform, or with tags, fused parts or gaps): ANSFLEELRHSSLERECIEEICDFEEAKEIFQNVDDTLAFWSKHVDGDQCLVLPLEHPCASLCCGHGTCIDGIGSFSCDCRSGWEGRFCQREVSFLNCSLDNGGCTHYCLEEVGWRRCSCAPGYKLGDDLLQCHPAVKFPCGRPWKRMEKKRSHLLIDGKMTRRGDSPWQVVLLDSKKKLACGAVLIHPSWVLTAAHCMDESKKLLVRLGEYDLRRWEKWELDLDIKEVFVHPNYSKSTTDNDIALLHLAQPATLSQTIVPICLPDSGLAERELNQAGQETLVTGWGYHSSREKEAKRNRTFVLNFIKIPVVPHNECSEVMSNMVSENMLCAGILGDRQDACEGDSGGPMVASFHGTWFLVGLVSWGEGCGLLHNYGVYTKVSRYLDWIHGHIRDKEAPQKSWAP
measurement_description: BLI, VHH captured via anti-V5, APC in solution
A number alone suffices; assume nM.

The examples below pair each entry with its known result.
LP9 (SR16983-R3-P3-B05) (VHH, not shown: small tags and cut ends, Llama VHH purified from E. coli periplasm) VHH: EVQLVESGGGLVQAGGSLRLSCAASGRTFVGSYVMGWFRQAPGKEREFVAASSRSTGNTVYLDSVKGRFTVSRDDAKNTLYLQMNSLKTEDTAVYYCATRASINYNAATWPYWGQGTQVTVSS    0.003
LP11 (SR16983-R3-P3-F03) (VHH, not shown: small tags and cut ends, Llama VHH purified from E. coli periplasm; also made in CHO cells for the endothelial barrier assay) VHH: QLQLVESGGGLAQAGGSLRLSCAASGRTFVGSYVMGWFRQAPGKEREFVAASSRSTGNTVYLDSVKGRFTISRDDAKNTLFLQMNRLKPEDTAVYYCATRASVNYNYAAWPYWGQGTQVTVSS    2.1
LP20 (SR16983-R4-P1-B07) (VHH, not shown: small tags and cut ends, Llama VHH purified from E. coli periplasm) VHH: QLQLVESGGGLVQAGGSLRLSCTASGSTVRVTAGGWYRQTPGNERELVADIDNGGSTTYADSVKGRFTISRDNAKNAVDLQMNSLKPEDTAVYRCFVIAIPDSAPRPRAYWGQGTEVTVSS    1.9
LP8 (SR16983-R3-P3-A04) (VHH, not shown: small tags and cut ends, Llama VHH purified from E. coli periplasm) VHH: QLQLVESGGGLVEAGGSLRLSCAASGRTFSSGALGWFRQAPGKEREFVATIRWSDERTQYSEFVKGRFTISRDNAKNTVYLQMNNLQPEDTAVYYCRSTVGNLLYWGQGTQVTVSS    2.8

Moving on to another binder below.
*Q* What value of measured Kd is listed for LP2 (SR16983-R2-P3-H10) (VHH, not shown: small tags and cut ends, Llama VHH purified from E. coli periplasm) VHH: QVQLVESGGGLVQAGGSLRLSCAASGRPISAYTWAWFRQAPGKEREFVAAITSSAGTTYYADSVRGRFTISRDNAENTVYLRMNTLKPEDTAVYYCAADDQGDNWYDHWGQGTQVTVSS ?
*A* 8.8
